Hello, the source for this data is ChEMBL document CHEMBL5375962, in case you need it.

Assay Info: Inhibition of mouse KHK-C
pIC50: −log10 of the molar value.
Measured Property: pIC50

In the examples that follow, each entry is paired with its recorded pIC50.
In [3]: df
Out[3]:
                      smiles_representation  value_reported
0  C[C@H]1CCN1c1nc(-c2cnn(C3CCOCC3)c2)cc(C(F)(F)F)c1C#N            7.21
1  C[C@H]1CCN1c1nc(-c2cnn(C3CCN(CCO)CC3)c2)cc(C(F)(F)F)c1C#N            8.10

(I) C[C@H]1CCN1c1nc(-c2cnn(CCO)c2)cc(C(F)(F)F)c1C#N
(II) C[C@H]1CCN1c1nc(-c2cnn(CC(=O)N(CCO)CCO)c2)cc(C(F)(F)F)c1C#N
(III) C[C@H]1CCN1c1nc(N2C[C@@H]3[C@@H](CC(=O)O)[C@@H]3C2)cc(C(F)(F)F)n1
(IV) OC[C@H]1CCN1c1nc(-c2cnn(C3CCNCC3)c2)cc(C(F)(F)F)n1
Ask: Arrange the 4 entries by pIC50 so the values rise. Answer format: list of labels, ordered as asked.
Reply: IV, II, III, I

(P) C[C@H]1CCN1c1nc(-c2cnn(C3CCNCC3)c2)cc(C(F)(F)F)c1C#N
(Q) C[C@H]1CCN1c1nc(-c2cnn(C3CCN(C(=O)CN)CC3)c2)cc(C(F)(F)F)c1C#N
(R) C[C@H]1CCN1c1nc(-c2cnn(C3CN(C)C3)c2)cc(C(F)(F)F)n1
(S) C[C@H]1CCN1c1nc(-c2cnn(CCN(C)C)c2)cc(C(F)(F)F)c1C#N
(T) C[C@H]1CCN1c1nc(-c2cnn(C3CCNCC3)c2)cc(C(F)(F)F)n1
Ask: Arrange the 5 entries by pIC50 so the values rise. Answer format: list of labels, ordered as asked.
Reply: T, S, Q, P, R

(a) C[C@H]1CCN1c1nc(-c2cnn(C3CNC3)c2)cc(C(F)(F)F)c1C#N
(b) C[C@H]1CCN1c1nc(-c2cnn(CC(=O)N3C[C@@H](O)[C@H](O)C3)c2)cc(C(F)(F)F)c1C#N
Ask: For the pair a and b , which member has the lower pIC50 number? Lab note: record the label of whichever item you select.
Reply: b

(I) C[C@H]1CCN1c1nc(-c2cnn(CC(=O)N3CCN(C)CC3)c2)cc(C(F)(F)F)c1C#N
(II) C[C@H]1CCN1c1nc(-c2cnn(CC(=O)N3C[C@H](O)[C@@H](O)C3)c2)cc(C(F)(F)F)c1C#N
Ask: Hi team, can someone confirm which has the larger pIC50: I or II ? Thanks. Lab note: record the label of whichever item you select.
Reply: I
